# study target: Sodium channel protein type 8 subunit alpha (Homo sapiens, UniProt Q9UQD0)
# Sequence (Q9UQD0 whole entry): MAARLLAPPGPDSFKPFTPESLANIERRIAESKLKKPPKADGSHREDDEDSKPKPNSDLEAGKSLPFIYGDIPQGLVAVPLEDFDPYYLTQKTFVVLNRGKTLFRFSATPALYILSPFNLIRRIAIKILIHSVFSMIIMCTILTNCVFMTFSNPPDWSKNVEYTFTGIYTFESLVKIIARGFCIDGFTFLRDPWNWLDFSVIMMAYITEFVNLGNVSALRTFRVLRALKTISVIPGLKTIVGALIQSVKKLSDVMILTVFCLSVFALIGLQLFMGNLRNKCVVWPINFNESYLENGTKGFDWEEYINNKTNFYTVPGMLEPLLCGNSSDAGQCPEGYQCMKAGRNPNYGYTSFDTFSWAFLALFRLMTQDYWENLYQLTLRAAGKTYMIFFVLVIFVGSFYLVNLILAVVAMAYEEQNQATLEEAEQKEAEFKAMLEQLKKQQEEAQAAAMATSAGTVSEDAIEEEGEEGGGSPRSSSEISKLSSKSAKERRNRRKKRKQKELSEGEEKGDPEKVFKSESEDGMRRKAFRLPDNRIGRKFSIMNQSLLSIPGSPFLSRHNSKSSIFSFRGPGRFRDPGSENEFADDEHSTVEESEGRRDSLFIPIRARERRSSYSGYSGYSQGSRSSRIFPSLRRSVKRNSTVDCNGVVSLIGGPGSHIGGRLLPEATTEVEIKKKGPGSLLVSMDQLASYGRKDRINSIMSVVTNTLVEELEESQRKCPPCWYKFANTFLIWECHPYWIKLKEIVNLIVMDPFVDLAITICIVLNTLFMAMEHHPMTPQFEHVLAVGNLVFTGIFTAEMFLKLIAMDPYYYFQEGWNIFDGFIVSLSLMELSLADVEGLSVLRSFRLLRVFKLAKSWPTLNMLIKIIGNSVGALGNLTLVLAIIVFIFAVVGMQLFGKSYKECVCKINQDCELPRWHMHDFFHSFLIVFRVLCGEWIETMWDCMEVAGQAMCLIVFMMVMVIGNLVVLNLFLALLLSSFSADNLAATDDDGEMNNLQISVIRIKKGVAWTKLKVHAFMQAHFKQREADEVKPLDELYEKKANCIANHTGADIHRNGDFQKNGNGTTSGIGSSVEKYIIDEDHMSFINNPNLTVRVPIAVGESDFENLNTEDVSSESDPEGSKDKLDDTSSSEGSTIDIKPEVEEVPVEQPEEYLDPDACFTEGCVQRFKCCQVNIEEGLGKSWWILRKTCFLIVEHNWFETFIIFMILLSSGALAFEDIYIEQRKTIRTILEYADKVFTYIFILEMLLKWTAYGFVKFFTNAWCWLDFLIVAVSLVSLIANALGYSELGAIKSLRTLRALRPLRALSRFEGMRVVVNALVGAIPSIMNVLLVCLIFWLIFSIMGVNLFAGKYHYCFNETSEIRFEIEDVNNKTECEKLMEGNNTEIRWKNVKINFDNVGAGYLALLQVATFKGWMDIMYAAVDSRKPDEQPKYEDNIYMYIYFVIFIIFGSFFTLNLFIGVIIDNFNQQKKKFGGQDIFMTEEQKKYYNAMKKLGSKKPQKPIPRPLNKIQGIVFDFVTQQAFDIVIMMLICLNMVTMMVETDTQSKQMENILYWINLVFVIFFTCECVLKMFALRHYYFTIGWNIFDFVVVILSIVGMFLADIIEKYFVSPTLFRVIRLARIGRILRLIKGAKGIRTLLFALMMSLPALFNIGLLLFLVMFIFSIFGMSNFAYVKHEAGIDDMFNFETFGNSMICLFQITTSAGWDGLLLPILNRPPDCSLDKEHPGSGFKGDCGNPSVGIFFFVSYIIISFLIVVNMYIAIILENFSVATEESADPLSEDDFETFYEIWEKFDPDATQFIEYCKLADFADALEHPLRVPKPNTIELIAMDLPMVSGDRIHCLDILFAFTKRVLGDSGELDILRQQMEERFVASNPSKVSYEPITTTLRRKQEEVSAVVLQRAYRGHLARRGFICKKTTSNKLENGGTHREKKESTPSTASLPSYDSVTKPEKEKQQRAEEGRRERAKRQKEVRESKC
# assay: Inhibition of human Nav1.6 by patch clamp electrophysiology
experimental readout: IC50 (nM)
The figure you give is taken to be in nM; do not add the unit.

What value of measured IC50 is listed for C[C@@H]1[C@@H](C(=O)O)[C@H](C(=O)c2cc(C3CC3)c(OCC3CCN(Cc4c(Cl)cccc4Cl)CC3)cc2F)C[C@@H]1F ?
300

----------
# study target: Sodium channel protein type 2 subunit alpha (Homo sapiens, UniProt Q99250)
# Sequence (Q99250 whole entry): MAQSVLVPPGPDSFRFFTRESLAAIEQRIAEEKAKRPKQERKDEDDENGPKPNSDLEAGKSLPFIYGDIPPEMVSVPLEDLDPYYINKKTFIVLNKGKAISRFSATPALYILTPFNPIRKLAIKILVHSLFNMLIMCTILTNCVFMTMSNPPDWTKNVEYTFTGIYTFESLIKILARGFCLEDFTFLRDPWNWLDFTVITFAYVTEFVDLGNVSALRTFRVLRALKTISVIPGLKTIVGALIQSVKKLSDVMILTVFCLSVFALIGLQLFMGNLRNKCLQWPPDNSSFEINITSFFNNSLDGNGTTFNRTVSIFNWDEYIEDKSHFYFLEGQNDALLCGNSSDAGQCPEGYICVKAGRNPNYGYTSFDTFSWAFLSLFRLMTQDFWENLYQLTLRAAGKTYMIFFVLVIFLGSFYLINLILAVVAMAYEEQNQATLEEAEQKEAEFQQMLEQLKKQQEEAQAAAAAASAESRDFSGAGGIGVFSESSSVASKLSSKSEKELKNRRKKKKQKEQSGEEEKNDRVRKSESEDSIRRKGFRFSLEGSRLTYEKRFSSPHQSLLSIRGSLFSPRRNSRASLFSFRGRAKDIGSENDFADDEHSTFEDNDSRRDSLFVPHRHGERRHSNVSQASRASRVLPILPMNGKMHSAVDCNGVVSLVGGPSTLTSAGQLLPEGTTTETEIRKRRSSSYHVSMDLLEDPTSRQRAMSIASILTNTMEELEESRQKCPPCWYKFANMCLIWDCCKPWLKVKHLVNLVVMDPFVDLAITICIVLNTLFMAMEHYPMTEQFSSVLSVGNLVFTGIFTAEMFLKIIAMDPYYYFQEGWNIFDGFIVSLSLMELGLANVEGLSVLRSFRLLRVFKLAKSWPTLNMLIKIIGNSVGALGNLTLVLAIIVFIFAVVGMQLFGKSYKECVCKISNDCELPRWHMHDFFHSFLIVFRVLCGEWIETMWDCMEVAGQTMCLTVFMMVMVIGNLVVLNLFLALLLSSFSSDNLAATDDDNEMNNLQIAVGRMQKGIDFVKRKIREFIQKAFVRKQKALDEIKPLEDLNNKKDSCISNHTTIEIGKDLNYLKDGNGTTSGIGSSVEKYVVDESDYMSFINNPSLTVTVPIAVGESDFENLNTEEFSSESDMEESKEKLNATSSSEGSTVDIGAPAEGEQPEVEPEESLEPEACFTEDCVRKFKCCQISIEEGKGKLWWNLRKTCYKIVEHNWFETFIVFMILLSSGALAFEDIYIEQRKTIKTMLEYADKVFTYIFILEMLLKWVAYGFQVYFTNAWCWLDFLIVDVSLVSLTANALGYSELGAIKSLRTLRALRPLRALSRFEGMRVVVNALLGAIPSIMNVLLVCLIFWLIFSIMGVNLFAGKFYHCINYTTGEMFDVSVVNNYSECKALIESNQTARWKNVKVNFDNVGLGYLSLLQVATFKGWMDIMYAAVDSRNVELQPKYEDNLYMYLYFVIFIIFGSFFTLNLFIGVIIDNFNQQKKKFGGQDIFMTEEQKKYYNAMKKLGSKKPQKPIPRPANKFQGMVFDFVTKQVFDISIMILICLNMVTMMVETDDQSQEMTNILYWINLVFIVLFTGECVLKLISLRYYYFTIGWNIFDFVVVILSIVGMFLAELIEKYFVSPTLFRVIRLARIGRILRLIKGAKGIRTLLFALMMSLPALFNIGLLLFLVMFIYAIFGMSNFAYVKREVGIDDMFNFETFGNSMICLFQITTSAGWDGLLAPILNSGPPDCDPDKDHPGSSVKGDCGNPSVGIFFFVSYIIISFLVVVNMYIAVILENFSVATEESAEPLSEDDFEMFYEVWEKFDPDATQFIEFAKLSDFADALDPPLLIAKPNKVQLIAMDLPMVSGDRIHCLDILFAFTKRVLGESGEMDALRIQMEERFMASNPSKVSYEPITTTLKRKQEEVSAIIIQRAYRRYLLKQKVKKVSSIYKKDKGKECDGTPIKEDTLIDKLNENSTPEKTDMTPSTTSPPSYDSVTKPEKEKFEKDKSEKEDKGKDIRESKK
# assay: Inhibition of human Nav1.2 by patch clamp electrophysiology
experimental readout: pIC50
pIC50 field: float, defined as -log10 of concentration (mol/L).

What value of measured pIC50 is listed for C[C@@H]1[C@@H](C(=O)O)[C@H](C(=O)c2cc(C3CC3)c(OCC3CCN(Cc4c(Cl)cccc4Cl)CC3)cc2F)C[C@@H]1F ?
7.82
